- test_details: Mouse blood and tissue PK (LC/MS-MS)
- Format: in vivo
- study_conditions: BALB/c nude, mouse, ear skin, oral, 3 mg/kg, sheet Ear Skin, model Capan-2, study Capan-2 #3_PHA 2023, 3 mg/kg, 8h; read-out: RMC-6236 (nM) Tumor
readout_type: concentration at 8 h (nM)
The reply should be a number in nM, with the unit left off.

Please give the measured concentration at 8 h for this molecule: CCn1c(-c2cc(N3CCN(C)CC3)cnc2[C@H](C)OC)c2c3cc(ccc31)-c1csc(n1)C[C@H](NC(=O)[C@H]1C[C@@H]1C)C(=O)N1CCC[C@H](N1)C(=O)OCC(C)(C)C2 [RMC-6236]
195

---

- System: panel of 78 cancer cell lines
- test_details: Cell panel 3D methylcellulose CellTiter-Glo proliferation
- Assay type: cell-based
- study_conditions: Homo sapiens, PANC-03-27, PANC0327; KRAS G12V; Pancreas; read-out: Proliferation Inhibition (EC50)
readout_type: EC50 (nM)
The reply should be a number in nM, with the unit left off.

Please give the measured EC50 for this compound: CCn1c(-c2cc(N3CCN(C)CC3)cnc2[C@H](C)OC)c2c3cc(ccc31)-c1csc(n1)C[C@H](NC(=O)[C@H]1C[C@@H]1C)C(=O)N1CCC[C@H](N1)C(=O)OCC(C)(C)C2 [RMC-6236]
1

---

- test_details: Mouse blood and tissue PK (LC/MS-MS)
- Format: in vivo
- study_conditions: BALB/c nude, mouse, tumor, oral, 25 mg/kg, Capan-2, study Capan-2 #3_PHA 2023, 25 mg/kg, 8h; read-out: RMC-6236 (nM) Tumor
readout_type: concentration at 8 h (nM)
The reply should be a number in nM, with the unit left off.

Please give the measured concentration at 8 h for this molecule: CCn1c(-c2cc(N3CCN(C)CC3)cnc2[C@H](C)OC)c2c3cc(ccc31)-c1csc(n1)C[C@H](NC(=O)[C@H]1C[C@@H]1C)C(=O)N1CCC[C@H](N1)C(=O)OCC(C)(C)C2
2290

---

- test_details: Mouse blood and tissue PK (LC/MS-MS)
- Format: in vivo
- study_conditions: BALB/c nude, mouse, tumor, oral, 10 mg/kg, Capan-2, study Capan-2 #3_PHA 2023, 10 mg/kg, 48h; read-out: RMC-6236 (nM) Tumor
readout_type: concentration at 48 h (nM)
The reply should be a number in nM, with the unit left off.

Please give the measured concentration at 48 h for this compound: CCn1c(-c2cc(N3CCN(C)CC3)cnc2[C@H](C)OC)c2c3cc(ccc31)-c1csc(n1)C[C@H](NC(=O)[C@H]1C[C@@H]1C)C(=O)N1CCC[C@H](N1)C(=O)OCC(C)(C)C2 [RMC-6236]
142

---

- test_details: Mouse blood and tissue PK (LC/MS-MS)
- Type: in vivo
- study_conditions: mouse, tumor relative to whole blood, oral, 25 mg/kg, NCI-H2122 (25 mg/kg), single dose; read-out: Tumor/Blood AUC Ratio
readout_type: Kp
# print the numeric value only

Please give the measured Kp for this compound: CCn1c(-c2cc(N3CCN(C)CC3)cnc2[C@H](C)OC)c2c3cc(ccc31)-c1csc(n1)C[C@H](NC(=O)[C@H]1C[C@@H]1C)C(=O)N1CCC[C@H](N1)C(=O)OCC(C)(C)C2 [RMC-6236]
6.3
